biological target: F508delCFTR (Homo sapiens, UniProt P13569, DEL508-508); construct: expressed in transfected cells; host or cells: CFBE41o- human lung-derived epithelial cells (CFBE4lo-F508delCFTR-HRP), doxycycline-inducible; assay: Cell Surface Expression-Horse Radish Peroxidase (CSE-HRP) Assay; format: cell-based; conditions: with co-corrector (2 μM of 3-[(2R,4R)-4-({[1-(2,2-difluoro-1,3-benzodioxol-5-yl)cyclopropyl]carbonyl}amino)-7-methoxy-3,4-dihydro-2H-chromen-2-yl]benzoic acid); maximum at any tested concentration, normalized to on-plate positive control;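 further: co-corrector and positive control are both the same reference corrector at 2 µM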
Sequence (P13569 with tags, fused parts or gaps DEL508-508): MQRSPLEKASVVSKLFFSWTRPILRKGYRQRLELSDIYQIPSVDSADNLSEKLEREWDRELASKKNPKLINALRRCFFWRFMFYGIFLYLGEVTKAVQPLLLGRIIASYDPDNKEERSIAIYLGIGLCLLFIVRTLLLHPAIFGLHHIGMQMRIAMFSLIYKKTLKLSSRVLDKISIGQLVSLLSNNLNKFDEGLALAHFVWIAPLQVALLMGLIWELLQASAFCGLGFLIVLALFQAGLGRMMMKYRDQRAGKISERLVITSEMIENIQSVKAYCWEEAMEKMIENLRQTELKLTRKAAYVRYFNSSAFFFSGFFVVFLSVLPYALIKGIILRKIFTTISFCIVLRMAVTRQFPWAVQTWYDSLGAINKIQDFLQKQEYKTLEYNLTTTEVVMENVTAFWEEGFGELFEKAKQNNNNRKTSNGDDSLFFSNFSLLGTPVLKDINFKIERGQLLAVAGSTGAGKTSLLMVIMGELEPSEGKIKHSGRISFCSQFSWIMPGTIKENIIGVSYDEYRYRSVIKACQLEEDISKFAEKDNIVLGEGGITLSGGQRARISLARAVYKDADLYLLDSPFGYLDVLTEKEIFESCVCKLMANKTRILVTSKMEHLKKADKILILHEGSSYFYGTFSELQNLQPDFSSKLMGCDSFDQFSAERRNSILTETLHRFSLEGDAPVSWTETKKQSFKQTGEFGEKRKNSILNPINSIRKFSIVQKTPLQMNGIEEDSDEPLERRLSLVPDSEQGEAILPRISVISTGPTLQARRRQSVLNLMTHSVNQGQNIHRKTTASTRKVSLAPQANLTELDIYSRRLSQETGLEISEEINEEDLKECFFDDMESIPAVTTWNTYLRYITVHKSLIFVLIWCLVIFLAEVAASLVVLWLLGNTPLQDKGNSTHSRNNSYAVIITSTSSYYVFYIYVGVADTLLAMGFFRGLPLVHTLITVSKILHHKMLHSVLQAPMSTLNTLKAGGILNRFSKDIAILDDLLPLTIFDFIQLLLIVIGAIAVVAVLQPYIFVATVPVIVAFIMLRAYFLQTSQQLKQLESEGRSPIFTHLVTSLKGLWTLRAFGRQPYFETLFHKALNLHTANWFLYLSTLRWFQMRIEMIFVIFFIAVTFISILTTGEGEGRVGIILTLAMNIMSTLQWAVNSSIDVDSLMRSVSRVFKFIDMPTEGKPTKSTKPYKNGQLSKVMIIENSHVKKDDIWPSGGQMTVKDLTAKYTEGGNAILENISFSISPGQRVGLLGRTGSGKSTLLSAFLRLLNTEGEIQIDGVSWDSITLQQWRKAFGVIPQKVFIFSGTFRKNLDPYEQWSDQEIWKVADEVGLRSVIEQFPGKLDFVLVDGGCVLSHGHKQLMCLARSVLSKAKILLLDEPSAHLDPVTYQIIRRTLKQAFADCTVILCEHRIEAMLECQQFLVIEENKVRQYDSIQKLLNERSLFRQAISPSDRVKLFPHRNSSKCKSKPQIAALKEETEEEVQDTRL
observation_type: Maximum % activity (with co-corrector)

>>> reported_value("COc1ccc(C(C)(C)C)cc1CN[C@H]1[C@H](C(C)(C)C)[C@@H](C(=O)O)N(C(=O)c2ccc(Oc3ccccn3)cc2)[C@H]1c1cccnc1N(C)C")
"+++ (≥350)"
>>> reported_value("COc1ncc(C(F)(F)F)cc1CN[C@H]1[C@H](C(C)(C)C)[C@@H](C(=O)O)N(C(=O)OC(C)C)[C@H]1c1ccccc1C")
"+++ (≥350)"
>>> reported_value("COC(=O)N1[C@H](C(=O)O)[C@@H](C(C)(C)C)[C@H](NCc2cc(C(C)(C)C)ccc2OC)[C@@H]1c1ccccc1")
"+++ (≥350)"
